molecular target: Opioid receptors; mu/kappa/delta (Homo sapiens, UniProt P41145+P41143+P35372); experiment: Opioid receptor agonistic potency in guinea pig ileal longitudinal muscle(GPI) preparation; assay type: functional, Cavia porcellus; conditions: target entry is the homologue from another species
endpoint: IC50
State the value, then name its unit.

Query: Please give the measured IC50 for this molecule: CN1CC[C@]23c4c5ccc(O)c4O[C@H]2C(NC(=O)COCC(=O)O)CC[C@@]3(O)[C@H]1C5 (stereo not given in full)
Result: 0.027 µM

Query: Please give the measured IC50 for this molecule: CN1CC[C@]23c4c5ccc(O)c4O[C@H]2C(NC(=O)CCC(=O)O)CC[C@@]3(O)[C@H]1C5 (stereo not given in full)
Result: 0.144 µM

Query: Please give the measured IC50 for this molecule: CN1CC[C@]23c4c5ccc(O)c4O[C@H]2C(NC(=O)/C=C\C(=O)O)CC[C@@]3(O)[C@H]1C5 (stereo not given in full)
Result: 0.039 µM

Query: Please give the measured IC50 for this molecule: CN1CC[C@]23c4c5ccc(O)c4O[C@H]2C(NC(=O)C(N)CC(=O)O)CC[C@@]3(O)[C@H]1C5 (stereo not given in full)
Result: 0.031 µM

Query: Please give the measured IC50 for this molecule: CN1CC[C@]23c4c5ccc(O)c4O[C@H]2C(NC(=O)/C=C/C(=O)O)CC[C@@]3(O)[C@H]1C5 (stereo not given in full)
Result: 0.13 µM

* * *

Would you mind telling me the reported Ratio of each entry?
assay: Potency against opioid receptor relative to morphine; assay type: functional
Just the number, please, no unit after it.

Query: Please give the measured Ratio for this compound: CN1CC[C@]23c4c5ccc(O)c4O[C@H]2C(NC(=O)CCC(=O)O)CC[C@@]3(O)[C@H]1C5 (some centres undefined)
Result: 1.6

Query: Please give the measured Ratio for this compound: CN1CC[C@]23c4c5ccc(O)c4O[C@H]2C(NC(=O)/C=C/C(=O)O)CC[C@@]3(O)[C@H]1C5 (some centres undefined)
Result: 1.5

Query: Please give the measured Ratio for this compound: CN1CC[C@]23c4c5ccc(O)c4O[C@H]2C(NC(=O)/C=C\C(=O)O)CC[C@@]3(O)[C@H]1C5 (some centres undefined)
Result: 2.6

Query: Please give the measured Ratio for this compound: CN1CC[C@]23c4c5ccc(O)c4O[C@H]2C(NC(=O)C(N)CC(=O)O)CC[C@@]3(O)[C@H]1C5 (some centres undefined)
Result: 6.1
